molecular target: UniProt P31749; assay: In vitro Akt1 assay (IMAP fluorescence polarization, phosphorylation of TAMRA-peptide); assay type: biochemical; conditions: 12.5 uM compound; 40 µM ATP; read-out: Akt1 inh% @12.5 uM
Sequence (P31749 whole entry): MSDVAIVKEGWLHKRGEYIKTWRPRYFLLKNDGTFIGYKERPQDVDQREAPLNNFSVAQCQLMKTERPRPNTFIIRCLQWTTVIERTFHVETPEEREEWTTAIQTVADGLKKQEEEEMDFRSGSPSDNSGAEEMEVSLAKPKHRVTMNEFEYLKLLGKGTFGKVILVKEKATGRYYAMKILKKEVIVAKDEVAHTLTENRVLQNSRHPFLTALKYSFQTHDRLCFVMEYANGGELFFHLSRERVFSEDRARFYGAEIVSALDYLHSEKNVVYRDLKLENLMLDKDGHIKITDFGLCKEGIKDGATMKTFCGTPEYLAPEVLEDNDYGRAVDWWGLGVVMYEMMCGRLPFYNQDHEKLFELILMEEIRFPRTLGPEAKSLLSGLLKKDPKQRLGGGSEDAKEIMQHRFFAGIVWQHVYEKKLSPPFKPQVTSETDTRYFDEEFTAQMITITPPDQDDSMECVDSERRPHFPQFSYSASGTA
MEASUREMENT LABEL: inhibition at 12.5 µM

C[C@@H](NC(=O)c1ccc2c(c1)/C(=C(/Nc1ccc(CN3CCCCC3)cc1)c1ccccc1)C(=O)N2)c1ccc(F)cc1 [Compound 23] | 92.1%
C[C@H](NC(=O)c1ccc2c(c1)/C(=C(/Nc1ccc(CN3CCCCC3)cc1)c1ccccc1)C(=O)N2)c1ccccc1 [Compound 30] | 93%
COc1ccc([C@@H](C)NC(=O)c2ccc3c(c2)/C(=C(/Nc2ccc(CN4CCCCC4)cc2)c2ccccc2)C(=O)N3)cc1 [Compound 21] | 78.2%

Working through the 2 compounds below one at a time, give inhibition at 12.5 µM for each.
1. CC[C@@H](NC(=O)c1ccc2c(c1)/C(=C(/Nc1ccc(CN3CCCCC3)cc1)c1ccccc1)C(=O)N2)c1ccccc1 [Compound 18]
2. Cc1ccc([C@@H](C)NC(=O)c2ccc3c(c2)/C(=C(/Nc2cccc(CN4CCCCC4)c2)c2ccccc2)C(=O)N3)cc1 [Compound 27]

Result:
1. 92.1%
2. 81.3%

Working through the 3 compounds below one at a time, give inhibition at 12.5 µM for each.
1. COc1cccc([C@@H](C)NC(=O)c2ccc3c(c2)/C(=C(/Nc2ccc(CN4CCCCC4)cc2)c2ccccc2)C(=O)N3)c1 [Compound 22]
2. O=C1Nc2ccc(C(=O)NCc3ccccc3)cc2/C1=C(/Nc1ccc(CN2CCCCC2)cc1)c1ccccc1 [Compound 20]
3. CC[C@@H](NC(=O)c1ccc2c(c1)/C(=C(/Nc1cccc(CN3CCCCC3)c1)c1ccccc1)C(=O)N2)c1ccccc1 [Compound 12]

Result:
1: 88%; 2: 91.6%; 3: 75.1%

Working through the 2 compounds below one at a time, give inhibition at 12.5 µM for each.
1. COc1cccc([C@@H](C)NC(=O)c2ccc3c(c2)/C(=C(/Nc2cccc(CN4CCCCC4)c2)c2ccccc2)C(=O)N3)c1 [Compound 24]
2. C[C@@H](NC(=O)c1ccc2c(c1)/C(=C(/Nc1cccc(CN3CCCCC3)c1)c1ccccc1)C(=O)N2)c1ccccc1 [Compound 13]

Result:
1: 76.8%; 2: 60.6%

###

tested on: HKE3 human colon carcinoma cell line; assay: In vitro growth inhibition of colon carcinoma cells, HKE3 (CellTiter-Glo); format: cell-based; settings: 72 hours incubation
MEASUREMENT LABEL: log10 EC50 (log10 of the value in nM)
Parameter value (number): base-10 log of EC50 in nM.

Examples with their reported log10 EC50 follow.
C[C@@H](NC(=O)c1ccc2c(c1)/C(=C(/Nc1ccc(CN3CCCCC3)cc1)c1ccccc1)C(=O)N2)c1ccc(F)cc1 | 1.60
C[C@@H](NC(=O)c1ccc2c(c1)/C(=C(/Nc1ccc(CN3CCN(C)CC3)cc1)c1ccccc1)C(=O)N2)c1ccccc1 | 1.00
Cc1ccc([C@@H](C)NC(=O)c2ccc3c(c2)/C(=C(/Nc2cccc(CN4CCCCC4)c2)c2ccccc2)C(=O)N3)cc1 | 3.12

Working through the 6 compounds below one at a time, give log10 EC50 for each.
1. O=C1Nc2ccc(C(=O)NCc3ccccc3)cc2/C1=C(/Nc1ccc(CN2CCCCC2)cc1)c1ccccc1
2. CC[C@@H](NC(=O)c1ccc2c(c1)/C(=C(/Nc1ccc(CN3CCCCC3)cc1)c1ccccc1)C(=O)N2)c1ccccc1
3. C[C@@H](NC(=O)c1ccc2c(c1)/C(=C(/Nc1cccc(CN3CCCCC3)c1)c1ccccc1)C(=O)N2)c1ccccc1
4. CC[C@@H](NC(=O)c1ccc2c(c1)/C(=C(/Nc1cccc(CN3CCCCC3)c1)c1ccccc1)C(=O)N2)c1ccccc1
5. COc1cccc([C@@H](C)NC(=O)c2ccc3c(c2)/C(=C(/Nc2ccc(CN4CCCCC4)cc2)c2ccccc2)C(=O)N3)c1
6. COc1cccc(CNC(=O)c2ccc3c(c2)/C(=C(/Nc2ccc(CN4CCN(C)CC4)cc2)c2ccccc2)C(=O)N3)c1

Result:
[1.00, 0.60, 2.15, 1.30, 1.30, 1.90]

From: patent EP3056202A1
